# Test system: Escherichia coli TOP10
# Protocol Description: shrunken log2 fold change of peptide-encoding DNA abundance (4.5 h post-induction vs induction); higher = less antimicrobial activity (less host growth inhibition)
# Run Conditions: time post-induction: 4.5 h; library: site-saturation at positions 5, 18, 19, 20
Parameter: shrunken log2 fold change
Lab note: jot the number down without any unit.

// shrunken log2 fold change lookup, key: RRIRGRPPRLPRPRPRPGVYPRP
0.0589

// shrunken log2 fold change lookup, key: RRIRFRPPRLPRPRPRPCHIPRP
-0.11

// shrunken log2 fold change lookup, key: RRIRPRPPRLPRPRPRPGLRPRP
3.24

// shrunken log2 fold change lookup, key: RRIRFRPPRLPRPRPRPSCIPRP
-0.603

// shrunken log2 fold change lookup, key: RRIRDRPPRLPRPRPRPDPYPRP
0.00859

// shrunken log2 fold change lookup, key: RRIRFRPPRLPRPRPRPLQTPRP
0.165

// shrunken log2 fold change lookup, key: RRIRKRPPRLPRPRPRPIKTPRP
-0.0153

// shrunken log2 fold change lookup, key: RRIRTRPPRLPRPRPRPSRSPRP
-0.0434

* * *

# Test system: Escherichia coli TOP10
# Protocol Description: shrunken log2 fold change of peptide-encoding DNA abundance (4.5 h post-induction vs induction); higher = less antimicrobial activity (less host growth inhibition)
# Run Conditions: time post-induction: 4.5 h; library: site-saturation at positions 5, 18, 19, 20
Given measured shrunken log2 fold change, output met if it is greater than or equal to 0.1 and not met if not.

* RRIRDRPPRLPRPRPRPVMVPRP | met

With those in mind, consider the next sequence.
Test whether the sequence RRIRVRPPRLPRPRPRPWGWPRP records shrunken log2 fold change of 0.1 or higher.
met

* * *

# Tested on: Escherichia coli TOP10
# Protocol Description: shrunken log2 fold change of peptide-encoding DNA abundance (4.5 h post-induction vs induction); higher = less antimicrobial activity (less host growth inhibition)
# Run Conditions: time post-induction: 4.5 h; library: site-saturation at positions 5, 18, 19, 20
Given measured shrunken log2 fold change, output 1 (yes) if it is greater than or equal to 0.08 and 0 (no) if not.

Reference set (6 entries):
• RRIRHRPPRLPRPRPRPPKNPRP = 0 (no)
• RRIRRRPPRLPRPRPRPWDRPRP = 1 (yes)
• RRIRTRPPRLPRPRPRPNKRPRP = 0 (no)
• RRIRDRPPRLPRPRPRPDWIPRP = 1 (yes)
• RRIRERPPRLPRPRPRPPWIPRP = 0 (no)
• RRIRARPPRLPRPRPRPETWPRP = 1 (yes)

Test whether the sequence RRIRPRPPRLPRPRPRPSCMPRP records shrunken log2 fold change of 0.08 or higher.
0 (no)

* * *

# Test system: Escherichia coli TOP10;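 further: peptides expressed intracellularly from a pBAD plasmid library in pooled LB shake-flask culture, induced with 0.3% L-arabinose, DNA abundance read by NGS, three biological replicates, DESeq2 with apeglm shrinkage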
# Protocol Description: shrunken log2 fold change of peptide-encoding DNA abundance (4.5 h post-induction vs induction); higher = less antimicrobial activity (less host growth inhibition)
# Run Conditions: time post-induction: 4.5 h; library: site-saturation at positions 5, 18, 19, 20
Given measured shrunken log2 fold change, output true (1) if it is greater than or equal to -0.2 and false (0) if not.

Reference set (2 entries):
• RRIRNRPPRLPRPRPRPFGIPRP = true (1)
• RRIRNRPPRLPRPRPRPNSKPRP = false (0)

Test whether the sequence RRIRCRPPRLPRPRPRPGLAPRP records shrunken log2 fold change of -0.2 or higher.
true (1)

Test whether the sequence RRIRYRPPRLPRPRPRPMVPPRP records shrunken log2 fold change of -0.2 or higher.
false (0)

Test whether the sequence RRIRQRPPRLPRPRPRPNITPRP records shrunken log2 fold change of -0.2 or higher.
false (0)

Test whether the sequence RRIRVRPPRLPRPRPRPTGPPRP records shrunken log2 fold change of -0.2 or higher.
true (1)

Test whether the sequence RRIRMRPPRLPRPRPRPPLNPRP records shrunken log2 fold change of -0.2 or higher.
true (1)

Test whether the sequence RRIRDRPPRLPRPRPRPQLNPRP records shrunken log2 fold change of -0.2 or higher.
false (0)

Test whether the sequence RRIRLRPPRLPRPRPRPSLIPRP records shrunken log2 fold change of -0.2 or higher.
false (0)

Test whether the sequence RRIRWRPPRLPRPRPRPNSEPRP records shrunken log2 fold change of -0.2 or higher.
true (1)

Test whether the sequence RRIRVRPPRLPRPRPRPSFTPRP records shrunken log2 fold change of -0.2 or higher.
false (0)

Test whether the sequence RRIRNRPPRLPRPRPRPTWEPRP records shrunken log2 fold change of -0.2 or higher.
true (1)

Test whether the sequence RRIRGRPPRLPRPRPRPGMAPRP records shrunken log2 fold change of -0.2 or higher.
true (1)

Test whether the sequence RRIRFRPPRLPRPRPRPSRPPRP records shrunken log2 fold change of -0.2 or higher.
true (1)

Test whether the sequence RRIRLRPPRLPRPRPRPAVVPRP records shrunken log2 fold change of -0.2 or higher.
true (1)
